Data provenance is PubChem BioAssay (NCI).

Tested on: SNB-75 CNS
TEST DESCRIPTION: NCI-60 one-dose screen, 48 h (100 = growth as untreated, 0 = no growth, -100 = all killed)
TEST PARAMETERS: 10 µM unless noted
Compounds without any hit were thinned out: in the full panel of roughly 83,000, 20% have a hit.
PARAMETER: growth (%)
Numbers only here, please. The scale is %.

Look over these answered cases.
{"MOLECULE": "Nc1c(C(=O)Nc2ccccc2C(F)(F)F)sc2nc3c(cc12)CCC3", "ENDPOINT VALUE": 97.4}
{"MOLECULE": "O=C(CN1C(=O)NC2NC(=O)NC21)N/N=C/c1ccccc1[N+](=O)[O-] (stereo not drawn)", "ENDPOINT VALUE": 83.3}

// next item, growth requested
Look up growth: `O=C(COc1ccc(-c2nc3cc(Cl)c(Cl)cc3[nH]2)cc1)N=Nc1c(O)[nH]c2ccc(Cl)cc12`
68.5

----------
System: U251 CNS
TEST DESCRIPTION: NCI-60 one-dose screen, 48 h (100 = growth as untreated, 0 = no growth, -100 = all killed)
TEST PARAMETERS: 10 µM unless noted
This is part of a sample that, as a whole, favours compounds with a hit. Of some 83,000 tested, about 20% had one in any assay.
Criterion: growth meeting or surpassing 60%. Met: TRUE. Not met: FALSE.

Solved entries (count: 5):
{"COMPOUND": "CCCCNC(=O)Oc1ccc(/C(=C(/C)Cc2ccc(OC)cc2)c2ccc(OCCN3CCCC3)cc2)cc1", "TESTED TARGET": "U251 CNS", "GROUP LABEL": "FALSE"}
{"COMPOUND": "CCOC(=O)Cc1cnc(N/N=C(\\C)c2cc3ccccc3o2)s1", "TESTED TARGET": "U251 CNS", "GROUP LABEL": "TRUE"}
{"COMPOUND": "Cc1ccc2c(c1)=C/C(=C\\c1cc(-c3ccccc3)oc1O)C(=O)N=2", "TESTED TARGET": "U251 CNS", "GROUP LABEL": "TRUE"}
{"COMPOUND": "COc1c(B(O)O)cccc1-c1cc(C)c2c(ccc3[nH]ncc32)n1", "TESTED TARGET": "U251 CNS", "GROUP LABEL": "TRUE"}
{"COMPOUND": "COc1ccc(F)cc1/C=C/C(=O)/C=C(/C=C/c1cc(F)ccc1OC)OB(F)F", "TESTED TARGET": "U251 CNS", "GROUP LABEL": "FALSE"}

// inclusive: growth at least 60%? input: `C/C(=N\O)c1ccc(Cl)cc1`
TRUE

Hello, I need to know if `CC(C)=CC(=O)OCC(=O)O[C@@H]1C[C@]2(C(C)C)O[C@@]1(C)[C@@H]1CC[C@@H](C)[C@H]1[C@@H]2OC(=O)/C=C/c1ccccc1` has measured growth not below 60%. Thanks!
TRUE

For this compound, is measured growth 60% or higher? `C#Cc1c2c(c(OC)c3c1OCO3)[C@H]([C@H]1OC(=O)c3c1ccc(OC)c3OC)N(C)CC2`
TRUE

Quick check: does `COc1cccc(/C=C2\COc3ccc(O)c(O)c3C2=O)c1` have growth greater than or equal to 60%?
FALSE

Check if growth >= 60% (inclusive). Item: `O=C(/C=C/c1ccccc1)Nc1ncc(Cc2ccccc2Cl)s1`
FALSE

----------
Test system: A498 renal
TEST DESCRIPTION: NCI-60 one-dose screen, 48 h
TEST PARAMETERS: 10 µM unless noted
Compounds without any hit were thinned out: in the full panel of roughly 83,000, 20% have a hit. The source made the active and inactive calls. Rule for the calls: active = growth percent below 10; inactive = the rest.
Response enum: active, inactive

Outcome logged for `O=C1Nc2ccccc2/C1=C/c1cccn1CCCCn1c2ccccc2c(=O)c2ccccc21` in this assay:
inactive

// outcome(item) with item = `CCN(CC)CCn1c2ccc(OC)cc2c2sc3cc(OC)ccc3c(=O)c21`
inactive

Dear all, I need the recorded test outcome for `CC(C)(C)CC(C)(C)NC(=O)Nc1ncccc1OCc1ccccc1` , thank you.
inactive

Hi, do you know how `COc1cccc(/C=C2\COc3ccc(O)c(O)c3C2=O)c1` came out in this test?
inactive

What is the recorded call for this compound in the test? `S=c1sc2c(Cl)nc(-c3cccnc3)nc2n1-c1ccccc1`
inactive

Recorded call for `COc1ccc(-c2cc(-c3ccc(Cl)cc3)c(C#N)c(=O)n2Cc2ccc(C(=O)Nc3ccccc3N)cc2)cc1` ?
inactive

Give the logged outcome of this assay for the following compound: `Oc1c(Br)cc(Br)c2ccc(Cn3cc(-c4ccc(C(F)(F)F)cc4)nn3)nc12`
inactive

----------
Test system: K-562 leukemia
TEST DESCRIPTION: NCI-60 one-dose screen, 48 h (100 = growth as untreated, 0 = no growth, -100 = all killed)
TEST PARAMETERS: 10 µM unless noted
The panel holds about 83,000 compounds, 20% with a hit somewhere; the sample as a whole holds those more often.
Listed below: growth values for each entry.
Express your answer in %, writing the number without its unit.

{"COMPOUND": "N#Cc1c(-c2ccccc2)[nH]c2ncc(-c3ccccc3)n2c1=O", "growth, %": 98.7}

What value of growth has been reported for the following compound? NC(Cc1ccc(O)c([N+](=O)[O-])c1)C(=O)O (stereo unspecified)
101

Find the recorded growth belonging to `CC(C)c1ccc(-n2c(=S)[nH]c3sc4cc(O)ccc4c3c2=O)cc1` and report it.
107

growth lookup needed for `N#Cc1c(-c2ccc(Cl)cc2)c(C#N)c2c(C#N)c(N)nn2c1N` , thanks.
89.3

Would you mind telling me what growth value was observed for `O=C1C(Cl)=C(NCCCCCCNC2=C(Cl)C(=O)c3ccccc3C2=O)C(=O)c2ccccc21` ?
69.7

Report growth for `Cc1ccc(NC(=O)c2sc3nc(C)c(Br)c(C)c3c2N)cc1` please.
95.5

Tell me the measured growth of `Cc1cc(=O)n(C(=O)Nc2ccccc2Cl)c2cc(O)ccc12` , please.
109

Please give the measured growth for this compound: `O=C(NNC(=O)c1ccc(NC(=O)c2ccccn2)cc1)Nc1ccc([N+](=O)[O-])cc1`
107

Entry `O=C(CSc1oc(-c2ccccc2)nc1S(=O)(=O)c1ccccc1)Nc1ccc(F)cc1` : reported growth = ?
75.4

What does the record list as growth for `O=C1/C(=C\c2ccc3nccnc3c2)SC(=S)N1CCc1ccc(O)cc1` ?
96.9

----------
Tested on: NCI-H23 lung
TEST DESCRIPTION: NCI-60 one-dose screen, 48 h
TEST PARAMETERS: 10 µM unless noted
About 83,000 compounds went through this panel and 20% of them were active in at least one assay; those are over-represented in the sample as a whole. Active and inactive are the calls of the source. The calls were made as follows: active = growth percent below 10; inactive = the rest.
Field 'call' accepts 1.0 for active, 0.0 for inactive

Check out these entries, answers already filled in.
{"COMPOUND": "CCOC(=O)C/C(=N\\Nc1cc(=O)[nH]c2ccc(Br)cc12)C(=O)OCC", "GROUP LABEL": 0.0}
{"COMPOUND": "Cc1nc2sc(C(=O)Nc3cccc4ccccc34)c(N)c2cc1C(O)c1ccccc1 (configuration not stated)", "GROUP LABEL": 1.0}
{"COMPOUND": "N#CC1=C(N)Oc2c(c(=O)[nH]c3ccc(Cl)cc23)C12C(=O)c1ccccc1C2=O", "GROUP LABEL": 0.0}
{"COMPOUND": "O=C(/C=C(/C=C/c1ccc2[nH]ccc2c1)OB(F)F)/C=C/c1ccc2[nH]ccc2c1", "GROUP LABEL": 1.0}
{"COMPOUND": "COc1ccc(Cc2cnc(NC(=O)c3cc(C)oc3C)s2)cc1", "GROUP LABEL": 0.0}
{"COMPOUND": "Cc1ccc(CNc2ccc3nc(CCC4CCCCC4)[nH]c3c2)cc1", "GROUP LABEL": 0.0}
{"COMPOUND": "CC(C)c1ccc(-n2c(=S)[nH]c3sc4cc(O)ccc4c3c2=O)cc1", "GROUP LABEL": 0.0}
{"COMPOUND": "CCOC(=O)[C@@H]1CSC(CC)=C(C(=O)O)N1", "GROUP LABEL": 0.0}
{"COMPOUND": "CN(C)Cc1ccc(O)c(C(=O)O)c1", "GROUP LABEL": 0.0}
{"COMPOUND": "N#Cc1nc(-c2ccc(F)cc2)oc1S(=O)(=O)N1CCCCC1", "GROUP LABEL": 0.0}

Recorded test call requested for `COC1=CC(c2ccc[nH]2)=N/C1=C\c1[nH]c(C)c(C(=O)OC(C)C)c1C`
1.0

Hi, sorry to bother you, what did the test record for `COc1ccc2c(c1OC)CO[C@@H]2[C@H]1c2c(cc3c(c2OC)OCO3)CCN1S(=O)(=O)c1cn(C)cn1` ?
0.0

Which outcome was assigned to `CC(C)(Sc1cc(C(C)(C)C)c(OC(=O)CCCC(=O)O)c(C(C)(C)C)c1)Sc1cc(C(C)(C)C)c(OC(=O)CCCC(=O)O)c(C(C)(C)C)c1` in this test?
0.0

Assay outcome for `COC(=O)c1cc(N=C2NC(=O)/C(=C/C=C/c3ccccc3)S2)ccc1O` : what was it?
0.0

Lab log entry: `CCCCCCCC[C@@H]1N[C@@H](C(=O)OC)Cc2c1[nH]c1ccccc21` — outcome as called in the assay?
0.0

Hello, I am checking results. What call was entered for `O=c1[nH]c(Cc2nc3ccccc3s2)nc2cc(Br)ccc12` ?
0.0

Identify the outcome logged in this assay for the compound shown: C#CCNC(=O)[C@H](CC)[C@H]1CC[C@H](C)[C@H]([C@@H](C)[C@H](O)[C@H](C)C(=O)[C@H](CC)C2O[C@]3(C=CC(=O)[C@]4(CC[C@@](C)([C@H]5CC[C@](O)(CC)[C@H](C)O5)O4)O3)[C@H](C)C[C@@H]2C)O1 (some centres not stated)
0.0
